Reference for the values: patent US12116343B2

# SUBJECT_OF_TEST: G1 APOL1 (Homo sapiens, UniProt O14791, I384M/S342G)
# Construct: expressed in transfected cells
# Sequence (O14791 28-398 S342G/I384M): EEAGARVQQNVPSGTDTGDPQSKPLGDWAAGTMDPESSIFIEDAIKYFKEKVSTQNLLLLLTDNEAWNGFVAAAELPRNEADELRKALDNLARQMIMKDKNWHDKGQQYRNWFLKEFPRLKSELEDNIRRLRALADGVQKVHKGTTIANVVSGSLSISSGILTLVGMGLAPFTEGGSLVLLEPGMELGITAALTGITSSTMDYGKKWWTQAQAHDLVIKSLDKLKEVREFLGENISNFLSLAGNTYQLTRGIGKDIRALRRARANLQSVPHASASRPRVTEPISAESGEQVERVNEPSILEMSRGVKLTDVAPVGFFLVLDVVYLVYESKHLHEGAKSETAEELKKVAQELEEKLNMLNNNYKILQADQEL
# ASSAY_NAME: Acute APOL1 Thallium Assay with inducible stable clones of HEK 293 cells
# Format: cell-based
# ASSAY_SETUP: Table 24, Compounds 287 to 465; read-out: Thallium Assay (IC50)
pIC50: −log10 of the molar value.
Parameter: pIC50. Scope: all listed entries.

O=C(NCCO)O[C@H]1C[C@H](c2c(-c3ccc(F)cc3)[nH]c3c(F)cc(F)cc32)C1	6.00 to 6.60
CS(=O)(=O)CCNC(=O)C1CC(Cc2c(-c3ccc(F)cc3)[nH]c3c(F)cc(F)cc23)C1 (centres unmarked)	< 6.00
CON(C)C(=O)CNC[C@H]1C[C@H](c2c(-c3ccc(F)cc3)[nH]c3c(F)cc(F)cc32)C1	6.00 to 6.60

Name the recorded pIC50 for O=C(NCC1CCCO1)C1CC(Cc2c(-c3ccc(F)cc3)[nH]c3c(F)cc(F)cc23)C1 (centres unmarked) .
< 6.00

How about O=C(CC1CC(c2c(-c3ccc(F)cc3)[nH]c3c(F)cc(F)cc23)C1)N[C@@H]1CCNC1=O (some centres unmarked) ?
< 6.00

Next up: Cn1cnc(CNC(=O)C2CC(Cc3c(-c4ccc(F)cc4)[nH]c4c(F)cc(F)cc34)C2)c1 (centres unmarked)
< 6.00
